Where these numbers come from: paper PMC8809517

This section presents binders with their documented pKd values.
- targetEntity: T1, GFP-9S library array, motif 4 ND N98C;D124E (synthetic construct, N98C;D124E)
- T1 chain: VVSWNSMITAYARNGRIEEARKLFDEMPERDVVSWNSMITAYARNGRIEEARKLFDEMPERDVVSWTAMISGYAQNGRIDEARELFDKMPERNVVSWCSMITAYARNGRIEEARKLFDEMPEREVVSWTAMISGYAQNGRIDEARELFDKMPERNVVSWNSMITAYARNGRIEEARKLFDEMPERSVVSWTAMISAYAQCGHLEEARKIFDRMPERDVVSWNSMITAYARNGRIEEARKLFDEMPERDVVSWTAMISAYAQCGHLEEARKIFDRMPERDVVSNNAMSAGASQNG
- assayName: high-throughput RNA pulldown from lysate on Ni-NTA beads; HRP: 50 mM Tris pH 8, 150 mM NaCl, 1 mM beta-mercaptoethanol, 50 ug/ml BSA, 3 ug/ml yeast RNA, 0.5% heparin; ITC and FP: Tris pH 8, 200 mM KCl, 5% glycerol; MST: 50 mM Tris pH 8, 200 mM NaCl, 1 mM DTT, BSA, heparin, 0.05% Tween 20
- measurementConditions: tags: N-terminal His-eGFP; label: 5' IRDye 800CW
Lab note: report pKd as minus log10 of the concentration in molar units, number only.

> print(dat)
                            binder  readoutname  reportedresult
1  AUUAUACGUGA (ssRNA) [IR-rpoA-U]          pKd            6.77

Switching to the query record.
Ask: Item AUUAAACGUGA (ssRNA) [IR-rpoA-A] : provide pKd
Result: 6.84
